# Test system: ATP;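 note: ATP exposure 15 min at 22 °C before imaging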
# assay.protocol: switch fluorescence ratio, 500 uM ATP over buffer (Cy3 cluster intensity, sum of 5 cycles each) (fold (ratio)); higher = stronger signal-on switching upon ATP binding; sequences stand for … in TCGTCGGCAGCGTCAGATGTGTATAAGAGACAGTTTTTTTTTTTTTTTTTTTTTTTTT…TC
# study.conditions: aptamer strand: ATP DNA aptamer (quencher-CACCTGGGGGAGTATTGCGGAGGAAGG + anchor), 100 nM annealed; ATP concentration: 500 uM

- seq.string: "AGGGGTCTCA"
  switch fluorescence ratio: 0.985
- seq.string: "TGCTCCAGTC"
  switch fluorescence ratio: 1.09
- seq.string: "AGTGGGGAAT"
  switch fluorescence ratio: 1.01
- seq.string: "GGGCTATGGG"
  switch fluorescence ratio: 0.997
- seq.string: "TTTGCCGGGA"
  switch fluorescence ratio: 1.01
- seq.string: "AACTGGTGTC"
  switch fluorescence ratio: 1.01
- seq.string: "ATGGCTGTCA"
  switch fluorescence ratio: 1.01
- seq.string: "GGCTCGGGGG"
  switch fluorescence ratio: 1.03
- seq.string: "TCATTGATTT"
  switch fluorescence ratio: 0.978
- seq.string: "GCTAACATTT"
  switch fluorescence ratio: 0.974
- seq.string: "TTTTTTTAAC"
  switch fluorescence ratio: 0.999
- seq.string: "ATTATACCTT"
  switch fluorescence ratio: 1.18
- seq.string: "CCGGGGTGTT"
  switch fluorescence ratio: 1.22
- seq.string: "GACGCCTAGT"
  switch fluorescence ratio: 1.04
- seq.string: "GGGAAAGGGG"
  switch fluorescence ratio: 1.01
- seq.string: "CGTGGGGGCT"
  switch fluorescence ratio: 1
- seq.string: "CGGTGTTTTC"
  switch fluorescence ratio: 0.972
- seq.string: "TTTTTAAGGT"
  switch fluorescence ratio: 1
- seq.string: "GAGGGATGGG"
  switch fluorescence ratio: 0.975
- seq.string: "CTTCGGGGCG"
  switch fluorescence ratio: 1.01
- seq.string: "GGCGGGGAGG"
  switch fluorescence ratio: 1.01
- seq.string: "CAATCACAGG"
  switch fluorescence ratio: 1.29
- seq.string: "ACCCACTGGG"
  switch fluorescence ratio: 1.06
- seq.string: "CTAAATATAT"
  switch fluorescence ratio: 1.03
- seq.string: "AGTGGCTTTG"
  switch fluorescence ratio: 0.986
- seq.string: "AGAGTTAATG"
  switch fluorescence ratio: 0.968
- seq.string: "GGGGGGGGTA"
  switch fluorescence ratio: 1
- seq.string: "AGAACCACCG"
  switch fluorescence ratio: 1.12
- seq.string: "GTAGAAAAAA"
  switch fluorescence ratio: 1
- seq.string: "GGCCCTGCGG"
  switch fluorescence ratio: 1.02
- seq.string: "CTTGCTATGC"
  switch fluorescence ratio: 1.64
- seq.string: "GATGTTGCGT"
  switch fluorescence ratio: 1.02
- seq.string: "AGGCCTGAGC"
  switch fluorescence ratio: 1
- seq.string: "CGGTTTGGGA"
  switch fluorescence ratio: 0.994
- seq.string: "TACGGAGTGG"
  switch fluorescence ratio: 1.06
- seq.string: "ATCAATGAAC"
  switch fluorescence ratio: 1.05
- seq.string: "CCAGTACTTC"
  switch fluorescence ratio: 1.11
- seq.string: "TGTAGGCGGC"
  switch fluorescence ratio: 1.02
- seq.string: "AACGAAAAAG"
  switch fluorescence ratio: 1.12
- seq.string: "TGGGACCGTC"
  switch fluorescence ratio: 1.05
- seq.string: "AGGTGTTATT"
  switch fluorescence ratio: 1.01
- seq.string: "AAGCGGGCCT"
  switch fluorescence ratio: 1.02
- seq.string: "CACGGGGAAC"
  switch fluorescence ratio: 1.28
- seq.string: "ATAATGTAGC"
  switch fluorescence ratio: 1.04
- seq.string: "CGGGGATCCT"
  switch fluorescence ratio: 1.05
- seq.string: "AGGGAGTGCT"
  switch fluorescence ratio: 1.02
